Readings of relative viability for the listed compounds
system: NCI-H1437; test: relative viability (nuclei count vs DMSO), 5 days (fraction); higher = more cells survive; settings: first compound 20 µM

compound | relative viability
Cc1csc(=NC2CCCCC2)n1/N=C/c1ccc(O)c(O)c1O [MIM1] + N=C(N)NC(=N)NCCc1ccccc1 [Phenformin] (partner 250 µM) | 0.217
Cc1csc(=NC2CCCCC2)n1/N=C/c1ccc(O)c(O)c1O [MIM1] + CC1(C)CCC(c2ccc(Cl)cc2)=C(CN2CCN(c3ccc(C(=O)NS(=O)(=O)c4ccc(N[C@H](CCN5CCOCC5)CSc5ccccc5)c(S(=O)(=O)C(F)(F)F)c4)cc3)CC2)C1 [Navitoclax] (partner 0.5 µM) | 0.27
Cc1csc(=NC2CCCCC2)n1/N=C/c1ccc(O)c(O)c1O [MIM1] + CC(C)C[C@H](NC(=O)[C@H](Cc1ccccc1)NC(=O)c1cnccn1)B(O)O [Bortezomib] (partner 0.002 µM) | 0.112
Cc1csc(=NC2CCCCC2)n1/N=C/c1ccc(O)c(O)c1O [MIM1] + CC(=O)c1c(C)c2cnc(Nc3ccc(N4CCNCC4)cn3)nc2n(C2CCCC2)c1=O [Palbociclib] (partner 0.5 µM) | 0.149

---

Readings of relative viability for the listed molecules
tested on: NCI-H460; assay: relative viability (nuclei count vs DMSO), 5 days (fraction); higher = more cells survive; conditions: first compound 0.6325 µM
outcome_measure: relative viability

molecule | numeric_result
CN1CCN(CCOc2cc(OC3CCOCC3)c3c(Nc4c(Cl)ccc5c4OCO5)ncnc3c2)CC1 [Saracatinib] + Cc1nc(Nc2ncc(C(=O)Nc3c(C)cccc3Cl)s2)cc(N2CCN(CCO)CC2)n1 [Dasatinib] (partner 0.075 µM) | 0.603
Cc1csc(=NC2CCCCC2)n1/N=C/c1ccc(O)c(O)c1O [MIM1] + N=C(N)NC(=N)NCCc1ccccc1 [Phenformin] (partner 250 µM) | 0.531
CN1CCN(CCOc2cc(OC3CCOCC3)c3c(Nc4c(Cl)ccc5c4OCO5)ncnc3c2)CC1 [Saracatinib] + NC(=O)Nc1cc(-c2cccc(F)c2)sc1C(=O)N[C@H]1CCCNC1 [AZD7762] (partner 0.2 µM) | 0.628
CN1CCN(CCOc2cc(OC3CCOCC3)c3c(Nc4c(Cl)ccc5c4OCO5)ncnc3c2)CC1 [Saracatinib] + CC(=O)Nc1cccc(-n2c(=O)n(C3CC3)c(=O)c3c(Nc4ccc(I)cc4F)n(C)c(=O)c(C)c32)c1 [Trametinib] (partner 0.02 µM) | 0.129
Cc1csc(=NC2CCCCC2)n1/N=C/c1ccc(O)c(O)c1O [MIM1] + O=C(c1cc(Cc2n[nH]c(=O)c3ccccc23)ccc1F)N1CCN(C(=O)C2CC2)CC1 [Olaparib] (partner 8 µM) | 0.411
CN1CCN(CCOc2cc(OC3CCOCC3)c3c(Nc4c(Cl)ccc5c4OCO5)ncnc3c2)CC1 [Saracatinib] + Cc1nc(NC(=O)N2CCC[C@H]2C(N)=O)sc1-c1ccnc(C(C)(C)C(F)(F)F)c1 [Alpelisib] (partner 2 µM) | 0.289
Cc1csc(=NC2CCCCC2)n1/N=C/c1ccc(O)c(O)c1O [MIM1] + Cc1nc(Nc2ncc(C(=O)Nc3c(C)cccc3Cl)s2)cc(N2CCN(CCO)CC2)n1 [Dasatinib] (partner 0.075 µM) | 0.42

Measured values drawn from the supplement of paper PMC10307832 for this set.
